Source: PubChem BioAssay (NCATS)

Assay: Cellular viability qHTS for adrenocortical cancer (ACC) cell line NCI-H295R (AID 1963990); note: nearly all actives have a fitted effect of over 60% in size
Conditions: CellTiter-Glo ATP luminescence, 48 h; series mostly up to 46.1 µM
Results filed as inconclusive are left out. Calls of active or inactive are those of the source. Calls come from the whole dose curve; as a rule, active = well fitted cell-killing curve with a large enough effect; inconclusive = small, poorly fitted or top-dose-only effect; inactive = flat fitted curve, though single readings scatter.
Classes used: class 1 = active, class 0 = inactive

compound=Cc1nc2c(-c3cnc(N)nc3)nc(N3CCOCC3)nc2n1C(C)C assigned_class="class 1"
compound=O=C(c1ccccc1)c1ccccc1 assigned_class="class 0"
compound=NS(=O)(=O)c1ccc(NC(=S)N2CCN(C/C=C/c3ccccc3)CC2)cc1 assigned_class="class 0"
compound=Cc1c(C)n(Cc2ccccc2)c2ccc(C(=O)OCCN(C)C)cc12 assigned_class="class 1"
compound=Cc1cc(C(C)(C)C)cc(C)c1CC1=NCCN1 assigned_class="class 0"
compound=Cc1ccccc1C(=O)N1CC/C(=N\OS(=O)(=O)O)c2ccc(Cl)cc21 assigned_class="class 0"
compound=OCCN1CCN(CC/C=C2/c3ccccc3Sc3ccc(C(F)(F)F)cc32)CC1 assigned_class="class 1"
compound="COCCCOc1ccnc(CS(=O)c2nc3ccccc3[nH]2)c1C (stereo unspecified)" assigned_class="class 0"
compound=COc1ccc(-c2cc(=O)c3c(O)cc(O)cc3o2)cc1O assigned_class="class 0"
compound=COc1cc(N)c(Cl)cc1C(=O)NC1CCN(Cc2ccccc2)CC1 assigned_class="class 0"
compound=Cc1cc(NS(=O)(=O)c2ccc(N)cc2)no1 assigned_class="class 0"
compound=CC[C@H](Nc1ncnc2nc[nH]c12)c1nc2cccc(F)c2c(=O)n1-c1ccccc1 assigned_class="class 0"
compound=Cc1ccc(C(C)C)cc2c(C)ccc1-2 assigned_class="class 0"
compound=NS(=O)(=O)c1ccc(N2CCCCS2(=O)=O)cc1 assigned_class="class 0"
compound="Cc1cc(Oc2ccc3nc(COc4ccc(CC5SC(=O)NC5=O)cc4)n(C)c3c2)cc(C)c1N (stereo unspecified)" assigned_class="class 0"
compound="COc1cc(O)c2c(c1)C1OC1C[C@H](O)[C@H](O)C(=O)C=CC[C@H](C)OC2=O (stereo partly specified)" assigned_class="class 1"
compound=CC(=O)N1CCC[C@H]1C(=O)N[C@@H](Cc1cnc[nH]1)C(=O)N[C@@H](CO)C(=O)N[C@@H](CS)C(=O)N[C@@H](CC(N)=O)C(N)=O assigned_class="class 0"
compound="CC(C)CCCC(C)NCCC(C)C (stereo unspecified)" assigned_class="class 0"
compound=COc1ccc2cc3[n+](cc2c1OC)CCc1cc2c(cc1-3)OCO2 assigned_class="class 0"
compound=C=CC(=O)Nc1cc(N2CCN(CC)CC2)ccc1Nc1cc(N(C)C(=O)Nc2c(Cl)c(OC)cc(OC)c2Cl)ncn1 assigned_class="class 0"
compound="CCCCCNC(=O)N1CCC(CN(Cc2ccc(Cl)cc2)Cc2ccc([N+](=O)[O-])s2)C1 (stereo unspecified)" assigned_class="class 1"
compound="CCCCS(=N)(=O)CCC(N)C(=O)O (stereo unspecified)" assigned_class="class 0"
compound="CC1COC2(CCN(c3nc(=O)c4cc(C(F)(F)F)cc([N+](=O)[O-])c4s3)CC2)O1 (stereo unspecified)" assigned_class="class 0"
compound=CC1(C)O[C@@H]2C[C@H]3[C@@H]4C[C@H](F)C5=CC(=O)C=C[C@]5(C)[C@@]4(F)[C@@H](O)C[C@]3(C)[C@]2(C(=O)CO)O1 assigned_class="class 0"
compound=CCN(CC)CCNC(=O)c1ccc(N)cc1 assigned_class="class 0"
compound="C[C@H]1O[C@H](O[C@H]2[C@H](O)[C@@H](O)[C@@H](O[C@H]3[C@H](O)[C@@H](O)C(O)O[C@@H]3CO)O[C@@H]2CO)[C@H](O)[C@@H](O)[C@@H]1N[C@H]1C=C(CO)[C@@H](O)[C@H](O)[C@H]1O (stereo partly specified)" assigned_class="class 0"
compound=Cc1ncc(-c2ccnc(Nc3ccc(S(C)(=O)=O)cc3)n2)n1C(C)C assigned_class="class 1"
compound="COc1cc(-c2nn(C3CCC(N4CCN(C(C)=O)CC4)CC3)c3ncnc(N)c23)ccc1NC(=O)c1cc2ccccc2n1C (stereo unspecified)" assigned_class="class 0"
compound=CO[C@@]1(NC(=O)Cc2cccs2)C(=O)N2C(C(=O)O)=C(COC(N)=O)CS[C@@H]21 assigned_class="class 0"
compound=CN(C)CCNC(=O)NC[C@H]1CC[C@@H]2[C@H](O1)c1cc(C(F)(F)F)ccc1N[C@H]2c1ccccc1 assigned_class="class 1"
compound="O=C(CS(=O)Cc1ccco1)NC/C=C\\COc1cc(CN2CCCCC2)ccn1 (stereo unspecified)" assigned_class="class 0"
compound=Cc1ncc([N+](=O)[O-])n1C assigned_class="class 0"
compound=CC(=O)c1cc2c(o1)C(=O)c1ccccc1C2=O assigned_class="class 1"
compound=C[C@@H]1C[C@H](N)C[C@H](c2ccncc2NC(=O)c2ccc(F)c(-c3c(F)cccc3F)n2)C1 assigned_class="class 1"
compound=COCCNCCCn1c(C(=O)CF)c(-c2ccc(C)cc2)c2c(N)ncnc21 assigned_class="class 0"
compound=CC(C)NC[C@@H](O)COc1ccc(CC(N)=O)cc1 assigned_class="class 0"
